# credit: patent US20240158446A1

- system.under.test: GDP-bound KRAS wild-type protein (Homo sapiens, UniProt P01116)
- Sequence (P01116 whole entry): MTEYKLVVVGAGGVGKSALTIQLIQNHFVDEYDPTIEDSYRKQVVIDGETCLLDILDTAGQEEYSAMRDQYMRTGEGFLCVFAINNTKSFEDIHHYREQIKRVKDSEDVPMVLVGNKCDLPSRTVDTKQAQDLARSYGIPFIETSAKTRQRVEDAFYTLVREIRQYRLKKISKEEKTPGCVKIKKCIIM
- experimental.protocol: Binding to KRAS by surface plasmon resonance (SPR), Single Cycle Kinetics
- stated.conditions: SPR, Single Cycle Kinetics, 1:1 binding model; read-out: KD value with respect to GDP-bound KRAS wild-type protein
measured.parameter: Kd (nM)
Numeric only. Scale: nM

CCC[C@H]1C(=O)N[C@@H]([C@@H](C)CC)C(=O)N(C)CC(=O)N(C)[C@H]2C/C=C\CCN(C2=O)[C@@H](Cc2ccc(C(F)(F)F)cc2)C(=O)N(C)CC(=O)N[C@@H](CCc2cc(F)c(C(F)(F)F)c(F)c2)C(=O)N2C[C@H](OCC)C[C@H]2C(=O)N(C)C2(CCC2)C(=O)N(C)[C@@H](C2CCCC2)C(=O)N(C)[C@H](C(=O)N2CCCCC2)CC(=O)N1C    0.12

Then this molecule:
Lab note: measured Kd of "CC[C@H](C)[C@@H]1NC(=O)[C@H](CC(C)C)N(C)C(=O)CSC[C@H](C(=O)N(C)C)N(C)C(=O)[C@H](C2CCCC2)N(C)C(=O)C2(CCCC2)NC(=O)[C@@H]2CCCN2C(=O)[C@@H](CCc2cc(F)c(C(F)(F)F)c(F)c2)NC(=O)CN(C)C(=O)[C@H](Cc2ccc(C(F)(F)F)cc2)N2CC=CC[C@@H](C2=O)N(C)C(=O)CN(C)C1=O" was 870

----------
This section presents compounds with their documented pKd values.
- system.under.test: GDP-bound KRAS wild-type protein (Homo sapiens)
- experimental.protocol: Binding to KRAS by surface plasmon resonance (SPR), Single Cycle Kinetics
- stated.conditions: SPR, Single Cycle Kinetics, GDP-bound KRAS wild-type protein; read-out: KRAS KD
Give only the number. pKd is defined as minus log10 of concentration in molar units.

Example cases with answers are listed next.
CCC[C@H]1C(=O)N[C@@H]([C@@H](C)CC)C(=O)N(CCC)CC(=O)N(C)[C@H]2C/C=C\CCN(C2=O)[C@@H](Cc2ccc(C(F)(F)F)cc2)C(=O)N(C)CC(=O)N[C@@H](CCc2cc(F)c(C(F)(F)F)c(F)c2)C(=O)N2C[C@H](OCC)C[C@H]2C(=O)NC2(CCC2)C(=O)N(C)[C@@H](C2CCCC2)C(=O)N(C)[C@H](C(=O)N(C)C)CC(=O)N1C [PP1767]    9.47
CCO[C@@H]1C[C@H]2C(=O)NC3(CCC3)C(=O)N(C)[C@@H](C3CCCC3)C(=O)N(C)[C@H](C(=O)N3CCOCC3)CC(=O)N(C)[C@@H](CC3CC3)C(=O)N[C@@H]([C@@H](C)CC)C(=O)N(C)CC(=O)N(C)[C@H]3CCCCCN(C3=O)[C@@H](Cc3ccc(F)cc3)C(=O)N(C)CC(=O)N[C@@H](CCc3cc(F)c(C(F)(F)F)c(F)c3)C(=O)N2C1 [PP1178]    9.80
CCCN(C)C(=O)[C@@H]1CC(=O)N(C)[C@@H](COCC)C(=O)N[C@@H]([C@@H](C)CC)C(=O)N(C)CC(=O)N(C)[C@H]2C/C=C\CCN(C2=O)[C@@H](Cc2ccc(C(F)(F)F)cc2)C(=O)N(C)CC(=O)N[C@@H](CCc2cc(F)c(C(F)(F)F)c(F)c2)C(=O)N2C[C@H](OCC)C[C@H]2C(=O)NC2(CC(C)(C)C2)C(=O)N(C)[C@@H](C2CCCC2)C(=O)N1C [PP2031]    9.85
CCO[C@@H]1C[C@H]2C(=O)NC3(CCC3)C(=O)N(C)[C@@H](C3CCCC3)C(=O)N(C)[C@H](C(=O)N(C)C)CC(=O)N(C)[C@@H](Cc3ccc(C)cc3)C(=O)N[C@@H]([C@@H](C)CC)C(=O)N(C)CC(=O)N(C)[C@H]3CCCCCN(C3=O)[C@@H](Cc3ccc(C(F)(F)F)cc3)C(=O)N(C)CC(=O)N[C@@H](CCc3cc(F)c(C(F)(F)F)c(F)c3)C(=O)N2C1 [PP0943]    8.96
CCCCN1CC(=O)NC2(CCC2)C(=O)N(C)[C@@H](C2CCCC2)C(=O)N(C)[C@H](C(=O)N(C)C)CC(=O)N(C)[C@@H](CC)C(=O)N[C@@H]([C@@H](C)CC)C(=O)N(C)CC(=O)N(C)[C@H]2C/C=C\CCN(C2=O)[C@@H](Cc2ccc(C(F)(F)F)cc2)C(=O)N(C)CC(=O)N[C@@H](CCc2cc(F)c(C(F)(F)F)c(F)c2)C1=O [PP1142]    9.19
CCC[C@H]1C(=O)N[C@@H]([C@@H](C)CC)C(=O)N(C)CC(=O)N(C)[C@H]2C/C=C\CCN(C2=O)[C@@H](CC2CCC(F)(F)CC2)C(=O)N(C)CC(=O)N[C@@H](CCc2ccc(C(F)(F)F)c(OC)c2)C(=O)N2C[C@H](OCC)C[C@H]2C(=O)N(C)C2(CCC2)C(=O)N(C)[C@@H](C(CC)CC)C(=O)N(C)[C@H](C(=O)N(C)C)CC(=O)N1C [PP2345]    8.77
CCC[C@H]1C(=O)N[C@@H]([C@@H](C)CC)C(=O)N(C)CC(=O)N(C)[C@H]2C/C=C\CCN(C2=O)[C@@H](Cc2ccc(C(F)(F)F)cc2)C(=O)N(C)CC(=O)N[C@@H](CCc2ccc(C(F)(F)F)c(OC)c2)C(=O)N2C[C@H](OCC)C[C@H]2C(=O)N(C)C2(CCC2)C(=O)N(C)[C@@H](C2CCCC2)C(=O)N(C)[C@H](C(=O)N2CCCC2)CC(=O)N1C [PP3105]    10.22
CCCOC[C@H]1C(=O)N[C@@H]([C@@H](C)CC)C(=O)N2CCC[C@H]2C(=O)N(C)[C@H]2C/C=C\CCN(C2=O)[C@@H](Cc2ccc(C)cc2)C(=O)N(C)CC(=O)N[C@@H](CCc2cc(F)c(C(F)(F)F)c(F)c2)C(=O)N2C[C@H](C)C[C@H]2C(=O)NC2(CC(C)(C)C2)C(=O)N(C)[C@@H](C2CCCC2)C(=O)N(C)[C@H](C(=O)N(C)CC)CC(=O)N1C [PP2430]    8.85

I looked up CCC[C@H]1C(=O)N[C@@H]([C@@H](C)CC)C(=O)N(C)CC(=O)N(C)[C@H]2C/C=C\CCN(C2=O)[C@@H](Cc2ccc(C(F)(F)F)cc2)C(=O)N(C)CC(=O)N[C@@H](CCc2cc(F)c(C(F)(F)F)c(F)c2)C(=O)N2C[C@H](OCC)C[C@H]2C(=O)NC2(CC(F)(F)C2)C(=O)N(C)[C@@H](C2CCCC2)C(=O)N(C)[C@H](C(=O)N(C)CCC)CC(=O)N1C [PP1736] and its pKd for GDP-bound KRAS wild-type protein (Homo sapiens) was 9.89

Kindly note: GDP-bound KRAS wild-type protein (Homo sapiens), CCC[C@@H]1C[C@H]2C(=O)NC3(CC(C)(C)C3)C(=O)N(C)[C@@H](C3CCCC3)C(=O)N(C)[C@H](C(=O)N(C)C)CC(=O)N(C)[C@@H](CC)C(=O)N[C@@H]([C@@H](C)CC)C(=O)N(C)CC(=O)N(C)[C@H]3C/C=C\CCN(C3=O)[C@@H](Cc3ccc(C)cc3)C(=O)N(C)CC(=O)N[C@@H](CCc3cc(F)c(C(F)(F)F)c(F)c3)C(=O)N2C1 [PP2208] , pKd value reported: 9.70

Value sought: pKd, system GDP-bound KRAS wild-type protein (Homo sapiens), item CCO[C@@H]1C[C@H]2C(=O)NC3(CC(F)(F)C3)C(=O)N(C)[C@@H](C3CCCC3)C(=O)N(C)[C@H](C(=O)N(C)C)CC(=O)N(C)[C@@H](CC(C)C)C(=O)N[C@@H]([C@@H](C)CC)C(=O)N(C)CC(=O)N(C)[C@H]3C/C=C\CCN(C3=O)[C@@H](Cc3ccc(C(F)(F)F)cc3)C(=O)N(C)CC(=O)N[C@@H](CCc3cc(F)c(C(F)(F)F)c(F)c3)C(=O)N2C1 [PP1741] . Result: 10.41
